Give MIC for every item shown.
Test system: Streptococcus mutans GS-5
Protocol description: MIC and MBC, broth dilution
Assay type: cell-based
Entry rule: numbers only, all in µM.

// query # get_value(readout='MIC', item= CC(=O)O[C@H]1C(=O)c2c(O)cc(O)cc2O[C@@H]1c1ccccc1 [Pinobanksin-3-acetate] )
// result 500

// query # get_value(readout='MIC', item= O=C1C[C@@H](c2ccccc2)Oc2cc(O)cc(O)c21 )
// result 250

// query # get_value(readout='MIC', item= CC(C)=CCC/C(C)=C/CC/C(C)=C/CO )
// result 125

// query # get_value(readout='MIC', item= O=c1cc(-c2ccccc2)oc2cc(O)c(O)c(O)c12 )
// result 500
